Molecular target: porcine pancreatic elastase (Sus scrofa)
Sequence (P00772 27-266): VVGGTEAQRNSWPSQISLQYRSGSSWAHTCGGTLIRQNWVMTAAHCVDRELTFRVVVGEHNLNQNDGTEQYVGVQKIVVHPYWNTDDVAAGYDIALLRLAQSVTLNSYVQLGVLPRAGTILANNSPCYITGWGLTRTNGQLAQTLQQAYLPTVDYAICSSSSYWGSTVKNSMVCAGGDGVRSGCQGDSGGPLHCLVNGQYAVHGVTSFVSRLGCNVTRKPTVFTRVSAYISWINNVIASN
Experiment: Inhibition of porcine pancreatic elastase (AAPV-AFC fluorogenic substrate)
Type: biochemical
Conditions: substrate 0.1 mM AAPV-AFC; method of Green and Work; read-out: DISSOCIATION CONSTANT (Ki), porcine pancreatic elastase
No end group written: not given here.
outcome-measure: Ki
Please state the value followed by its unit.

Lookup: Record request: Ki value, item AQEPVKGPVSTKPGSCPIILIRCAMLNPPNRCLKDTDCPGIKKCCEGSCGMACFVPQ (cysteine pairing not given here) [prominent inhibitor]
Found: 1 nM

====

Target: Proteinase 3 (Homo sapiens)
Construct: Proteinase 3 was purified from human polymorphonuclear leukocytes using the method of Ludemann; from tissue; host or cells: human polymorphonuclear leukocytes
Sequence (P24158 28-256): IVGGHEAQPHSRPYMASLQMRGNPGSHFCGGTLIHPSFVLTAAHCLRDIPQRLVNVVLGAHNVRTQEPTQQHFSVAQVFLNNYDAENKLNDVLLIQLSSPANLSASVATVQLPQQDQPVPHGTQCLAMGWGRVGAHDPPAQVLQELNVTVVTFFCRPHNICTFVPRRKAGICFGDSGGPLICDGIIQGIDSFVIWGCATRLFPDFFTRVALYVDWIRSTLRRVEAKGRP
Experiment: Inhibition of proteinase 3 (elastin-FITC hydrolysis)
Format: biochemical
Conditions: 37° C., 4 hours, pH 8.5, read-out: IC50 against proteinase 3
No end group written: not given here.
outcome-measure: IC50 (nM)
State the answer as a number, implicitly in nM.

Lookup: Can you look up IC50 on Proteinase 3 (Homo sapiens) for AQEPVKGPVSTKPGSCPIILIRCAMLNPPNRCLKDTDCPGIKKCCEGSCGMACFVPQ (cysteine pairing not given here) [prominent inhibitor] ?
Found: 9.5

====

Target: human leukocyte elastase (Homo sapiens)
Construct: purchased Elastin Products Corporation, Pacific, Mo., USA
Sequence (P08246 30-267): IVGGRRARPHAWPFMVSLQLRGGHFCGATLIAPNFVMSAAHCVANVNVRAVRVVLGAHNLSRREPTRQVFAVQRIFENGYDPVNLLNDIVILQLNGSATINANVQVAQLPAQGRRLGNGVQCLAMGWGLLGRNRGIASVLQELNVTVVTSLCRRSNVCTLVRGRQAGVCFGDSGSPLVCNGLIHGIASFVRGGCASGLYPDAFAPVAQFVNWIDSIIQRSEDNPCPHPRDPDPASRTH
Experiment: Inhibition of human leukocyte elastase (AAPVpNA substrate; Ki by Green and Work)
Type: biochemical
Settings: substrate 2 mM AAPVpNA; 1 μg/ml HLE; method of Green and Work; read-out: DISSOCIATION CONSTANT (Ki), human leukocyte elastase
No end group written: not given here.
outcome-measure: pKi
pKi is a log-scale quantity: -log10 of the concentration expressed in molar.

Lookup: Fill blank: measured pKi of the sequence AQEPVKGPVSTKPGSCPIILIRCAMLNPPNRCLKDTDCPGIKKCCEGSCGMACFVPQ (cysteine pairing not given here) [prominent inhibitor] is ____.
Found: 9.52
